- Test system: EKVX
- EXPERIMENT: NCI tumour cell line growth inhibition, 48 h
The source made the active and inactive calls. Cut-off read from the data, not from the text of the source: active = GI50 up to about 1.1 µM and inactive = higher.
MEASURE NAME: GI50

Recorded results for 3 compounds are shown here.
IN: GI50 of Cc1ccc(/C=C2\CNC/C(=C\c3ccc(C)cc3)C2=O)cc1 on EKVX?
OUT: 3.92 µM (inactive)

IN: GI50 of COC(=O)[C@@H]1C[C@@H](O)CN1C(=O)c1ccc([N+](=O)[O-])cc1[N+](=O)[O-] on EKVX?
OUT: > 100 µM (inactive)

IN: GI50 of COc1ccc(OC)c(C23CCCC(C2)N(C)CC3)c1 (stereo unspecified) on EKVX?
OUT: 43.6 µM (inactive)

New cases:
IN: GI50 of N#CC(c1ccc(Cl)cc1)c1cccc(Cl)n1 (stereo unspecified) on EKVX?
OUT: 39 µM (inactive)

IN: GI50 of O=c1ccn([C@@H]2C[C@@H]2CO)c(=O)[nH]1 on EKVX?
OUT: > 100 µM (inactive)

IN: GI50 of C[N+]12CCCCC1C(COc1cccc3cccnc13)CCC2 (stereo unspecified) on EKVX?
OUT: > 100 µM (inactive)

IN: GI50 of COc1ccc2c(c1OC)OCC(CN(C)C)C2=O (stereo unspecified) on EKVX?
OUT: 25.2 µM (inactive)

IN: GI50 of COc1ccc2[nH]c3c4c(c5cc(C(C)(C)C)ccc5c3c2c1)C(=O)N(c1ccccc1)C4=O on EKVX?
OUT: > 100 µM (inactive)

IN: GI50 of COc1cc2c(cc1OC)[C@@H]([C@H](O)c1ccccc1)NCC2 on EKVX?
OUT: > 97.7 µM (inactive)

IN: GI50 of COC(=O)[C@@H]1COC(C(C)(C)C)N1C(=O)C(c1ccccc1)c1ccccc1 (stereo partly specified) on EKVX?
OUT: 55.7 µM (inactive)

IN: GI50 of COC(=O)C(Nc1ccc(OC)cc1)c1ccccc1 (stereo unspecified) on EKVX?
OUT: > 100 µM (inactive)

---

- Tested on: SK-MEL-28
- EXPERIMENT: NCI tumour cell line growth inhibition, 48 h
Calls of active or inactive are those of the source. Rule as the data show it: active = GI50 up to about 1.1 µM and inactive = higher.
Hi there, use one of these labels in your reply, thanks! active, inactive

Use these answered entries as a reference point.
IN: For this compound, state the assay outcome: C/C=C/[C@H]1O[C@@](O)([C@@H](C)[C@H](O)[C@H](C)[C@H]2OC(=O)/C(OC)=C/C(C)=C/[C@@H](C)[C@@H](O)[C@@H](CC)[C@@H](O)[C@H](C)C/C(C)=C/C=C/[C@@H]2OC)C[C@H](OC2CC(O)C(O)C(C)O2)[C@@H]1C (some centres undefined)
OUT: active

IN: For this compound, state the assay outcome: CCN1C(=O)CS/C1=N\NC(=O)CSc1nc2ccccc2c(=O)n1CC
OUT: inactive

New cases:
IN: For this compound, state the assay outcome: CCc1c(Cc2cc(C)cc(C)c2)n2c(nc1=O)SCC2CBr (centres undefined)
OUT: inactive

IN: For this compound, state the assay outcome: COc1cccc(OC)c1/C=C1\OC(=O)c2cccc(OC)c21
OUT: inactive

IN: For this compound, state the assay outcome: CC(=O)c1c(-c2ccc(Cl)cc2)c(C#N)c(=S)n(C2OC(CO)C(O)C(O)C2O)c1-c1ccccc1 (centres undefined)
OUT: inactive
